The entries below are paired with their reported Population Membrane Permeable-Phenotype (%).
Test system: U2OS
experimentalDetails: Multiplex assay against U2OS
Type: toxicity, cell-based
appliedConditions: human, 12 h, 1 µM, compound concentration 1 uM, replicate 1
experimentalReadout: Population Membrane Permeable-Phenotype (%)

molecule=Nc1nc(CC(=O)Nc2ccc(CCNC[C@H](O)c3ccccc3)cc2)cs1 recordednumber=6
molecule=Cc1cc(=O)n(C)c2cc(N3C(=O)CC[C@H](NS(=O)(=O)CC(C)C)[C@H]3c3ccc(Cl)cc3)ccc12 recordednumber=3
molecule=COc1c(Nc2ccc(S(C)(=O)=O)nc2C)ncnc1OC1CCN(C(=O)OC(C)C)CC1 recordednumber=7
molecule=CN1CCN(c2ccc(Nc3c4ccccc4nc4ccccc34)cc2)CC1.Cl.Cl.O recordednumber=19
molecule=CCc1nn2c(C)cc(C)nc2c1Cc1ccc(-c2nnc(C3CCNCC3)o2)cc1 recordednumber=12
molecule=COc1ccc2c(c1OCc1ccccc1)C[C@@H](C(=O)O)N(C(=O)C(c1ccccc1)c1ccccc1)C2 recordednumber=4
molecule=COC(c1ccccc1)(c1ccccc1)[C@H](Oc1nc(C)cc(C)n1)C(=O)O recordednumber=3
molecule=Cc1nn(C)c2nc(NNC(=O)Nc3cc(Cl)nc(Cl)c3)cc(C(C)C)c12 recordednumber=5
molecule=Cc1cc(O)c(-c2ccc([C@@H](C)CN(C)C)cc2)c2c1[nH]c(=O)c1sccc12 recordednumber=21
molecule=Cc1cc(NC(=O)NCCN2CCC(O)(Cc3ccccc3)CC2)c2ccccc2n1 recordednumber=4
molecule=Cc1cc(-c2ccc3c(c2)CC[C@H]3N2CC3(CCN(C(=O)Cc4cn5cc(C)sc5n4)CC3)C2)ncn1 recordednumber=7
molecule="CN(C)C/C=C/C(=O)Nc1ccc(C(=O)N2CCCC(Nc3ncc(Cl)c(-c4c[nH]c5ccccc45)n3)C2)cc1 (configuration not stated)" recordednumber=5
molecule="CCC(=O)OCC(=O)[C@@]1(OC(=O)CC)[C@@H](C)C[C@H]2[C@@H]3CCC4=CC(=O)C=C[C@]4(C)[C@@]3(Cl)[C@@H](O)C[C@@]21C [BECLOMETHASONE DIPROPIONATE]" recordednumber=11
molecule=O=C(Nc1cc(-c2ccccc2)nn1-c1ccccc1F)c1ccc([N+](=O)[O-])cc1 recordednumber=10
molecule=Cc1sc2c(c1C)C(c1ccc(Cl)cc1)=N[C@H](CC(=O)OC(C)(C)C)c1nnc(C)n1-2 recordednumber=7
molecule=O=c1ccc2ccc(OCCCCN3CCN(c4cccc5sccc45)CC3)cc2[nH]1 recordednumber=40
molecule=N[C@](CC1c2ccccc2Oc2ccccc21)(C(=O)O)[C@H]1C[C@@H]1C(=O)O recordednumber=6
